Let's look at some IC50 data for Angiotensin-converting enzyme (Oryctolagus cuniculus, UniProt P12822) that I collected from the literature.
Hi! Just check whether IC50 is below 100 nM. Below gives yes, equal or above gives no.

{"compound": "O=C(O)C(CCc1ccccc1)NC1CCN2CCCC(C(=O)O)N2C1=O (racemic)", "class.label": "yes"}
{"compound": "C[C@H](N)C(=O)N1c2ccccc2C[C@H]1C(=O)O", "class.label": "no"}
{"compound": "O=C(c1ccccc1)c1cnc(SC(CC(=O)N2CCC[C@H]2C(=O)O)C(=O)c2ccc(Cl)cc2)nc1 (stereo partly drawn)", "class.label": "no"}
{"compound": "O=C(O)[C@@H]1CCCN2C(=O)CCCC(CS)C(=O)N12 (stereo partly drawn)", "class.label": "yes"}
{"compound": "CC(=O)SC(CC(=O)N1CCC[C@H]1C(=O)O)C(=O)c1cccs1 (stereo partly drawn)", "class.label": "no"}
{"compound": "CC(=O)SCC(C)C(=O)N(CC(=O)O)C1CCCC1 (stereo not drawn)", "class.label": "yes"}
{"compound": "O=C(c1ccc(Br)cc1)C(S)CC(=O)N1CCC[C@H]1C(=O)O (stereo partly drawn)", "class.label": "no"}
{"compound": "CC(=O)S[C@H](C(=O)c1ccccc1)[C@@H](C)C(=O)N1CCC[C@H]1C(=O)O", "class.label": "yes"}
{"compound": "O=C(O)C(CCCc1ccccc1)N[C@H]1CCC(=O)N2CCC[C@@H](C(=O)O)N2C1=O (mixture of isomers)", "class.label": "yes"}
{"compound": "CC(=O)S[C@H](C(=O)c1cccc(F)c1)[C@H](C)C(=O)N1CCC[C@H]1C(=O)O", "class.label": "no"}
{"compound": "O=C(O)[C@@H]1CCCN2CCC[C@H](CS)C(=O)N12", "class.label": "yes"}
{"compound": "CC(N[C@@H](CSCC(=O)N1CCCCC1)C(=O)O)C(=O)N1CCC[C@H]1C(=O)O (stereo partly drawn)", "class.label": "no"}
{"compound": "COCCN(CC(=O)O)C(=O)C(C)CS (stereo not drawn)", "class.label": "yes"}
{"compound": "O=C(O)[C@@H]1CCCN2C(=O)CN(Cc3ccccc3)C(CS)C(=O)N12 (single isomer, unassigned)", "class.label": "yes"}
{"compound": "CC(=O)SC(C(=O)c1ccc(Cl)cc1)C(C)C(=O)N1CCC[C@H]1C(=O)O (stereo partly drawn)", "class.label": "no"}

====

Let's look at some pIC50 data for Angiotensin-converting enzyme (Oryctolagus cuniculus, UniProt P12822) that I collected from the literature.
pIC50: −log10 of the molar value.

{"compound": "CC(=O)SC(CC(=O)N1CCC[C@H]1C(=O)O)C(=O)c1cccc(F)c1 (stereo partly drawn)", "pIC50": 7.50}
{"compound": "O=C(O)CCn1c(=O)n2n(c1=O)C(C(=O)O)C=CC2 (stereo not drawn)", "pIC50": 4.74}
{"compound": "CC(N[C@@H](CSC1(C)CCCCC1)C(=O)O)C(=O)N1CCC[C@H]1C(=O)O (stereo partly drawn)", "pIC50": 8.28}
{"compound": "CC(=O)SC(CC(=O)N1CCC[C@H]1C(=O)O)C(=O)c1ccc(Cl)cc1 (stereo partly drawn)", "pIC50": 7.08}
{"compound": "CC(N[C@@H](CSCC(=O)NCc1ccccc1)C(=O)O)C(=O)N1CCC[C@H]1C(=O)O (stereo partly drawn)", "pIC50": 6.47}
{"compound": "O=C(O)[C@@H]1CCCN2CCC[C@H](CP(=O)(O)O)C(=O)N12", "pIC50": 8.02}
{"compound": "C[C@H](CS)C(=O)N1C(C(=O)O)CCC1c1ccccc1O (single isomer, unassigned)", "pIC50": 5.92}
{"compound": "CC(=O)SC(CC(=O)N1CCC[C@H]1C(=O)O)C(=O)c1csc2ccccc12 (stereo partly drawn)", "pIC50": 6.86}
{"compound": "CC(=O)SC(CC(=O)N1CCC[C@H]1C(=O)O)C(=O)c1ccc(Cl)s1 (stereo partly drawn)", "pIC50": 6.97}
{"compound": "O=C(SC(CC(=O)N1CCC[C@H]1C(=O)O)C(=O)c1cccc(F)c1)c1ccccc1 (stereo partly drawn)", "pIC50": 5.75}
{"compound": "CC(=O)S[C@@H](C(=O)c1ccccc1)[C@@H](C)C(=O)N1CCC[C@H]1C(=O)O", "pIC50": 7.29}
{"compound": "O=C(O)C1CCC(c2ccc(O)cc2)N1C(=O)CCS (stereo not drawn)", "pIC50": 6.36}
{"compound": "O=C(c1cnc(SC(CC(=O)N2CCC[C@H]2C(=O)O)C(=O)c2ccc(Cl)cc2)nc1)c1cccs1 (stereo partly drawn)", "pIC50": 5.29}
{"compound": "O=C(O)C1Cc2ccccc2C(=O)N1C(=O)CCS (stereo not drawn)", "pIC50": 7.29}
{"compound": "CC(=O)SC(CC(=O)N1CCC[C@H]1C(=O)O)C(=O)c1ccc2c(c1)CCC2 (stereo partly drawn)", "pIC50": 6.66}
{"compound": "CCCCCCCSC[C@H](NC(C)C(=O)N1CCC[C@H]1C(=O)NC(C(=O)O)C(C)C)C(=O)O (stereo partly drawn)", "pIC50": 7.47}

====

pIC50: −log10 of the molar value.
Let's look at some pIC50 data for Angiotensin-converting enzyme (Oryctolagus cuniculus, UniProt P12822) that I collected from the literature.
pIC50 vs 7: at or above is met, below is not met.

{"molecule": "O=C(SC(CC(=O)N1CCC[C@H]1C(=O)O)C(=O)c1ccccc1)c1ccccc1 (some centres unmarked)", "class.label": "not met"}
{"molecule": "O=C(O)C(CCc1ccccc1)N[C@H]1CCC(=O)N2CCC[C@@H](C(=O)O)N2C1=O (single isomer, unassigned)", "class.label": "met"}
{"molecule": "CC(N[C@@H](CSC1Cc2ccccc2C1)C(=O)O)C(=O)N1CCC[C@H]1C(=O)O (some centres unmarked)", "class.label": "met"}
{"molecule": "CCCCCCSC[C@H](NC(C)C(=O)N1CCC[C@H]1C(=O)O)C(=O)O (single isomer, unassigned)", "class.label": "met"}
{"molecule": "CC(=O)SC(C(=O)c1cc2ccccc2s1)C(C)C(=O)N1CCC[C@H]1C(=O)O (some centres unmarked)", "class.label": "not met"}
{"molecule": "CCCCCCCSC[C@H](NC(C)C(=O)N1CCC[C@H]1C(=O)NC(C)C(=O)O)C(=O)O (some centres unmarked)", "class.label": "met"}
{"molecule": "O=C(O)C(CCc1ccccc1)N[C@H]1CC(=O)N2CCCC(C(=O)O)N2C1=O (single isomer, unassigned)", "class.label": "met"}
{"molecule": "CC(=O)SC(CC(=O)N1CCC[C@H]1C(=O)O)C(=O)c1ccc(Oc2ccc(Cl)cc2)cc1 (some centres unmarked)", "class.label": "not met"}
{"molecule": "O=C(SC(CC(=O)N1CCC[C@H]1C(=O)O)C(=O)c1ccc(F)cc1)c1ccccc1 (some centres unmarked)", "class.label": "not met"}
{"molecule": "CC(CS)C(=O)N(CC(=O)O)C1CC1 (centres unmarked)", "class.label": "met"}
{"molecule": "CC(N[C@@H](CSC1CCCC1)C(=O)O)C(=O)N1CCC[C@H]1C(=O)O (some centres unmarked)", "class.label": "met"}

====

Let's look at some pIC50 data for Angiotensin-converting enzyme (Oryctolagus cuniculus) that I collected from the literature.
pIC50: −log10 of the molar value.
value.kind: pIC50

{"compound": "O=C(O)CN1C(=O)[C@@H](NC(CCc2ccccc2)C(=O)O)CSc2ccccc21 (stereo partly drawn)", "result": "~8.00"}
{"compound": "C[C@H](C[C@@H](C)C(=O)N1c2ccccc2C[C@H]1C(=O)O)C(=O)O", "result": "~7.52"}
{"compound": "CC(=O)S[C@@H](C(=O)c1ccc(Br)cc1)[C@@H](C)C(=O)N1CCC[C@H]1C(=O)O", "result": 7.01}

====

Let's look at some pIC50 data for Angiotensin-converting enzyme (Oryctolagus cuniculus, UniProt P12822) that I collected from the literature.
pIC50: −log10 of the molar value.

{"compound": "CC(=O)SC(CC(=O)N1CCC[C@H]1C(=O)O)C(=O)c1ccc2ccccc2c1 (stereo partly drawn)", "pIC50": 6.89}
{"compound": "CC(=O)S[C@H](C(=O)c1ccc(Br)cc1)[C@@H](C)C(=O)N1CCC[C@H]1C(=O)O", "pIC50": 6.88}
{"compound": "CC(=O)SC(C(=O)c1cccc(F)c1)C(C)C(=O)N1CCC[C@H]1C(=O)O (stereo partly drawn)", "pIC50": 7.21}
{"compound": "O=C(O)C1CCCN2C(=O)CC(CS)C(=O)N12 (racemic)", "pIC50": 7.20}
{"compound": "CC(N[C@@H](CSCC(=O)NC1CCCC1)C(=O)O)C(=O)N1CCC[C@H]1C(=O)O (stereo partly drawn)", "pIC50": 7.21}
